System: lipase
Experiment: Lipase/lipolysis assay (EnzChek Lipase Substrate, quenched BODIPY-fatty acid conjugate) on stored human milk; note: test concentration or dose not given here
Use 900 RFU as the dividing line for Lipase (RFU), with the line itself on the yes side and lower values as no.

Is it the case that O=CC[C@H](O)[C@H](O)CO [Thyminose] has Lipase (RFU) reaching or exceeding 900 RFU? no

Could you tell me if the measured Lipase (RFU) of CC1=CCC(=O)O1 [α-Angelica lactone] reaches 900 RFU or more? yes

Is reported Lipase (RFU) greater than or equal to 900 RFU here: O=S(O)(O)=S [Thiosulfate] yes

Does the reported Lipase (RFU) for O=C(/C=C/c1ccc(O)c(O)c1)O[C@H]1[C@H](O)C[C@](O)(C(=O)O)C[C@H]1O [Cryptochlorogenic acid] fall at or above the 900 RFU mark? yes

Form field: Lipase (RFU) at least 900 RFU? Entry: O=c1cc(-c2ccccc2)oc2cc(O)cc(O[C@@H]3O[C@H](CO)[C@@H](O)[C@H](O)[C@H]3O)c12 [Toringin] yes

Dear colleague, could you confirm whether O=C1c2ccccc2C(=O)c2cc(CO)ccc21 [2-(Hydroxymethyl)anthraquinone] has Lipase (RFU) at or above 900 RFU? no

Say whether N[C@@H](CCCCNC(=O)CCCC[C@@H]1SC[C@@H]2NC(=O)N[C@@H]21)C(=O)O [Biocytin] shows Lipase (RFU) of 900 RFU or more. no

Confirm if Lipase (RFU) reported for the compound C[C@@H]1CC[C@@]2(OC1)O[C@H]1C[C@H]3[C@@H]4CC[C@@H]5C[C@@H](O)CC[C@]5(C)[C@H]4CC[C@]3(C)[C@H]1[C@@H]2C [Smilagenin] is 900 RFU or above. no

Is it the case that COc1cc(/C=C/CO)cc(OC)c1O[C@@H]1O[C@H](CO)[C@@H](O)[C@H](O)[C@H]1O [Syringin] has Lipase (RFU) reaching or exceeding 900 RFU? yes

Quick check: does NC(CCCC(=O)O)C(=O)O (stereo not drawn) [Aminoadipic acid] have Lipase (RFU) greater than or equal to 900 RFU? yes

Check the entry O=c1c(O[C@@H]2O[C@H](CO[C@@H]3O[C@H](CO)[C@@H](O)[C@H](O)[C@H]3O)[C@@H](O)[C@H](O)[C@H]2O)c(-c2ccc(O)c(O)c2)oc2cc(O)cc(O)c12 [Quercetin 3-gentiobioside] : does Lipase (RFU) equal or exceed 900 RFU? no

Does O=c1cc(-c2ccc(O)c(O)c2)oc2cc(O[C@@H]3O[C@H](CO)[C@@H](O)[C@H](O)[C@H]3O)cc(O)c12 [Cynaroside] have a reported Lipase (RFU) of at least 900 RFU? yes
